Please respond with reported interaction score for every item in the list.
- test_target: T1, 4H883-bH
- T1 chain: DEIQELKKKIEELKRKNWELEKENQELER
- experiment_summary: two-hybrid library CCNG1;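 further: natural log of median RNA to DNA barcode read ratio; higher means stronger binding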
Numbers only.

Guide cases for interaction score, answers given:
* DKIQELKKEIEELKRKIWELKKENQELER [4H2667-bH] | 0.434
* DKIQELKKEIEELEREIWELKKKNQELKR [4H2576-bH] | -0.465
* DEIQELEKKNEELKREIWELEKKIQELKR [4H454-bH] | -1.26
* DEIQELEKKIEELKREIWELKKENQELER [4H331-bH] | 0.193

### Prompt State, in one line, measured interaction score of DEIQELKKENEELKRKNWELEKEIQELKR [4H754-bH]
### Response -0.29
